target: delta opioid receptor (Mus musculus, UniProt P32300); construct: NG108-15 cell membranes were purchased from Applied Cell Sciences (Rockville, Md.); host or cells: NG108-15 cell membranes; assay: [35S]GTPγS binding assay in NG108-15 cell membranes (delta opioid functional assay), 200 nM screen; assay type: biochemical; conditions: relative efficacy from dose response; NG108-15 cell membranes
Sequence (P32300 whole entry): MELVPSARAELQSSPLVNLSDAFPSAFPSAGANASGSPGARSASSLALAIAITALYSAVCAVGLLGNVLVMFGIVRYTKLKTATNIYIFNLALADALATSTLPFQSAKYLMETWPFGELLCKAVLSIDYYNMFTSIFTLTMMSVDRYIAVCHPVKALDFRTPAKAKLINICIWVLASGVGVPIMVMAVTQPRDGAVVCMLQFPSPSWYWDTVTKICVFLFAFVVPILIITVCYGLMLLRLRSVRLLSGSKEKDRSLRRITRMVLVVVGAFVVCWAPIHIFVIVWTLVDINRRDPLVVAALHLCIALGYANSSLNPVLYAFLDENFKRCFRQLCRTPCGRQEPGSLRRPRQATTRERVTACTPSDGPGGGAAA
measured-parameter: GTPγS δ-opioid receptor Rel Efficacy
Reply with just the number.

CC[C@H]1CNCCN1c1cnc(-c2cncc(OC)c2)nc1Oc1ccc(OC)cc1; 1.015

Ask: Using delta opioid receptor (Mus musculus, UniProt P32300) as the test system, report measured GTPγS δ-opioid receptor Rel Efficacy of `CCc1ccc(Oc2nc(-c3cncc(F)c3)ncc2NC[C@@H]2CCCN2)cc1` .
Result: 1.065

Ask: Using delta opioid receptor (Mus musculus, UniProt P32300) as the test system, report measured GTPγS δ-opioid receptor Rel Efficacy of `CC(=O)Oc1cccc(Oc2nc(-c3cncc(C#N)c3)ncc2NC[C@@H]2CCCN2)c1` .
Result: 1.082

Ask: Using delta opioid receptor (Mus musculus, UniProt P32300) as the test system, report measured GTPγS δ-opioid receptor Rel Efficacy of `COc1ccc(Oc2nc(-c3cccnc3)ncc2NC[C@@H]2C[C@@H](F)CN2)cc1` .
Result: 1.146

Ask: Using delta opioid receptor (Mus musculus, UniProt P32300) as the test system, report measured GTPγS δ-opioid receptor Rel Efficacy of `Cc1cc(Oc2nc(-c3cncc(C#N)c3)ncc2NC[C@@H]2CCCN2)ccc1F` .
Result: 0.960

* * *

molecular target: delta opioid receptor (Mus musculus, UniProt P32300); construct: NG108-15 cell membranes were purchased from Applied Cell Sciences (Rockville, Md.); host or cells: NG108-15 cell membranes; assay: [35S]GTPγS binding assay in NG108-15 cell membranes (delta opioid functional assay), 200 nM screen; format: biochemical; conditions: 200 nM test compound; relative to calculated max of SNC80 dose response curve; NG108-15 cell membranes; averages if tested more than once
Classification scheme (GTPγS δ-RelEfficacy @200 nM): low range: < 0.5; mid range: ≥ 0.5 and < 0.7; high range: ≥ 0.7

COc1ccc(Oc2nc(-c3cncc(C#N)c3)ncc2N2CC[C@@H](N)C2)cc1; high range

# input for lookup
Ask: Hey, which category is COc1ccc(Oc2nc(-c3cncc(C#N)c3)ncc2N[C@H]2CCCNC2)cc1 [Cpd 199] in, do you know?
Result: mid range

* * *

target: delta opioid receptor (Mus musculus); construct: NG108-15 cell membranes were purchased from Applied Cell Sciences (Rockville, Md.); host or cells: NG108-15 cell membranes; test: [35S]GTPγS binding assay in NG108-15 cell membranes (delta opioid functional assay), 200 nM screen; assay type: biochemical; settings: GTPγS δ-opioid receptor EC50 (μM), NG108-15 cell membranes; averages if tested more than once
measured-parameter: EC50 (µM)
Express your answer in µM, writing the number without its unit.

COc1ccc(Oc2nc(-c3cccnc3)ncc2NC2CCCC(N)C2)cc1 (single isomer, unassigned) [Cpd 323]; 0.06
COc1ccc(Oc2nc(-c3cncc(C#N)c3)ncc2N2CCNC[C@@H]2C)cc1; 0.001
COc1ccc(Oc2nc(-c3cncc(OC)c3)ncc2N[C@@H]2CCCNC2)cc1; 0.078
COc1ccc(Oc2nc(-c3cncc(SC)c3)ncc2NC[C@@H]2C[C@@H](F)CN2)cc1; 0.034
COc1ccc(Oc2nc(-c3cncc(C)c3)ncc2NC[C@@H]2CCCN2)cc1; 0.0168
COc1ccc(Oc2nc(-c3cncc(C#N)c3)ncc2NC2CCC(N)CC2)cc1 (centres unmarked); 0.087
COc1ccc(Oc2nc(-c3cncc(OC)c3)ncc2NC[C@@H]2C[C@@H](O)CN2)cc1; 0.026
COc1ccc(Oc2nc(-c3cccnc3)ncc2N[C@@H]2CCCNC2)cc1; 0.241
CC[C@H]1CNCCN1c1cnc(-c2cncc(OC)c2)nc1Oc1ccc(OC)cc1; 0.013
COc1ccc(Oc2nc(-c3cccnc3)ncc2N[C@H]2CCC[C@@H](N)C2)cc1; 0.005

Ask: Entry `COc1ccc(Oc2nc(-c3cccnc3)ncc2N2CCCNCC2)cc1` needs its EC50 filled in; supply it.
Result: 0.0502

Ask: Entry `CC(=O)Nc1ccc(Oc2nc(-c3cncc(F)c3)ncc2NC[C@@H]2CCCN2)cc1` needs its EC50 filled in; supply it.
Result: 0.029

Ask: Entry `COc1ccc(Oc2nc(-c3cncc(C#N)c3)ncc2NCc2[nH]cnc2C)cc1` needs its EC50 filled in; supply it.
Result: 0.027

Ask: Entry `COc1ccc(Oc2nc(-c3cncc(C)c3)ncc2N[C@H]2CCNC2)cc1` needs its EC50 filled in; supply it.
Result: 0.095

Ask: Entry `COc1ccc(Oc2nc(-c3cncc(SC)c3)ncc2N[C@H]2CCC[C@@H](N)C2)cc1` needs its EC50 filled in; supply it.
Result: 0.00338

* * *

Here, each record is paired with measured inhibition at 10 µM data.
target: delta opioid receptor (Mus musculus, UniProt P32300); construct: NG108-15 cell membranes were purchased from Applied Cell Sciences (Rockville, Md.); host or cells: NG108-15 cell membranes; test: [35S]GTPγS binding assay in NG108-15 cell membranes (delta opioid functional assay), 200 nM screen; assay type: biochemical; settings: read-out: GTPγS δ-opioid receptor % Inh @10 μM
Express your answer in %, writing the number without its unit.

// solved cases for inhibition at 10 µM follow
COc1ccc(Oc2nc(-c3cnc(OC)nc3OC)ncc2NC[C@@H]2CCCN2)cc1 [Cpd 58]; 12.8
COc1ccc(Oc2nc(-c3ccnc(SC)n3)ncc2NC[C@@H]2CCCN2)cc1 [Cpd 66]; 5.77
COc1ccc(Oc2nc(-c3cccnc3)ncc2NC[C@@H]2CCCN2)cc1 [Cpd 8]; 23.6
COc1ccc(Oc2nc(-c3ccc(OC)c(F)c3)ncc2NC[C@@H]2CCCN2)cc1 [Cpd 64]; 12

Ask: Entry CCOc1ncc(-c2ncc(NC[C@@H]3CCCN3)c(Oc3ccc(OC)cc3)n2)cn1 [Cpd 60] needs its inhibition at 10 µM filled in; supply it.
Result: 3.73

Ask: Entry COc1ccc(Oc2nc(-c3cccc4ccccc34)ncc2NC[C@@H]2CCCN2)cc1 [Cpd 5] needs its inhibition at 10 µM filled in; supply it.
Result: 18.1

Ask: Entry COc1ccc(Oc2nc(-c3ccc(F)c(F)c3)ncc2NC[C@@H]2CCCN2)cc1 [Cpd 56] needs its inhibition at 10 µM filled in; supply it.
Result: 26.3

* * *

test system: acetic acid-induced abdominal stretches; assay: Mouse graded abdominal irritant test (GrAIT); type: in vivo; conditions: 30 mg/kg s.c., 10% Solutol, 30 min pretreatment
Here, each record is paired with measured # abdominal stretches (compound) data.

// solved cases for # abdominal stretches (compound) follow
COc1ccc(Oc2nc(-c3ccc(F)nc3)ncc2NC[C@@H]2CCCN2)cc1 [Cpd 25]; 12.3
COc1ccc(Oc2nc(-c3cccnc3)ncc2NC[C@@H]2CCCN2)cc1 [Cpd 8]; 18.9
COc1ccc(Oc2nc(-c3cccnc3OC)ncc2NC[C@@H]2CCCN2)cc1 [Cpd 26]; 16.7

Ask: Entry COc1ccc(Oc2nc(-c3cnc4ccccc4c3)ncc2NC[C@@H]2CCCN2)cc1 [Cpd 20] needs its # abdominal stretches (compound) filled in; supply it.
Result: 19.8

Ask: Entry COc1ccc(Oc2nc(-c3cncnc3)ncc2NC[C@@H]2CCCN2)cc1 [Cpd 23] needs its # abdominal stretches (compound) filled in; supply it.
Result: 16.7

Ask: Entry COc1ccc(Oc2nc(-c3cccnc3F)ncc2NC[C@@H]2CCCN2)cc1 [Cpd 24] needs its # abdominal stretches (compound) filled in; supply it.
Result: 16.9

* * *

target: delta opioid receptor (Rattus norvegicus, UniProt P33533); construct: the forebrains were homogenized in Tris buffer in a Teflon®-glass homogenizer; from tissue; host or cells: forebrain of male Wistar rats, particulate (membrane) preparation; assay: Rat brain delta opioid receptor binding assay; settings: δ-binding (Naltrindole ligand) Ki, rat forebrain, [3H]naltrindole ligand
Sequence (P33533 whole entry): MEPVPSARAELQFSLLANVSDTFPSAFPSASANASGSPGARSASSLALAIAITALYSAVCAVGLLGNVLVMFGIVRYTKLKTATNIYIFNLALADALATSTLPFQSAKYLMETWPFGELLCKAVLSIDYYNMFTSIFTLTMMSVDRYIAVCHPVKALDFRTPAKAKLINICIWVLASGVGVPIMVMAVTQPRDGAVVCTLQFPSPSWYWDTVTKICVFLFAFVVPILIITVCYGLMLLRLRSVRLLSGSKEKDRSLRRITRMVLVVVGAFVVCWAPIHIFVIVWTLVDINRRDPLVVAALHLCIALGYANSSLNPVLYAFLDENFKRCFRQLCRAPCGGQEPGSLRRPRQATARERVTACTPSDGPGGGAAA
In plain terms, low Ki, meaning strictly below 10 nM, gives criterion met, and everything else gives criterion not met.

COc1ccc(-c2ncc(NC[C@@H]3CCCN3)c(Oc3ccccc3OC)n2)cn1; criterion not met
COc1ccc(Oc2nc(-c3cccc(O)c3)ncc2NC[C@@H]2CCCN2)cc1; criterion met
CCN(CC)C(=O)c1cccc(-c2ncc(NC[C@@H]3CCCN3)c(Oc3ccc(OC)cc3)n2)c1; criterion not met
Nc1ccc(Oc2nc(-c3cccnc3)ncc2NC[C@@H]2CCCN2)cc1; criterion not met
FC(F)Oc1ccc(Oc2nc(-c3cncnc3)ncc2NC[C@@H]2CCCN2)cc1; criterion met
COc1ccc(Oc2nc(-c3cnc(C#N)nc3)ncc2NC[C@@H]2CCCN2)cc1; criterion not met

Ask: Dear colleague, could you confirm whether Ki of COc1ccc(Oc2nc(-c3cncc(C#N)c3)ncc2NC2CCC(N)CC2)cc1 (stereo not drawn) falls below 10 nM? Thanks.
Result: criterion met

Ask: Dear colleague, could you confirm whether Ki of `COc1ccc(Oc2nc(-c3cccc(S(C)(=O)=O)c3)ncc2NC[C@@H]2CCCN2)cc1` falls below 10 nM? Thanks.
Result: criterion not met

Ask: Dear colleague, could you confirm whether Ki of `COc1ccc(Oc2nc(-c3cnc(OC)nc3OC)ncc2NC[C@@H]2CCCN2)cc1` falls below 10 nM? Thanks.
Result: criterion met

Ask: Dear colleague, could you confirm whether Ki of `COc1ccc(Oc2nc(-c3cccc(F)c3)ncc2NC[C@@H]2CCCN2)cc1` falls below 10 nM? Thanks.
Result: criterion met

Ask: Dear colleague, could you confirm whether Ki of `COc1ccc(Oc2nc(-c3nccs3)ncc2NC[C@@H]2CCCN2)cc1` falls below 10 nM? Thanks.
Result: criterion not met

Ask: Dear colleague, could you confirm whether Ki of `c1ncc(-c2ncc(NC[C@@H]3CCCN3)c(Oc3ccc4ncsc4c3)n2)cn1` falls below 10 nM? Thanks.
Result: criterion met

Ask: Dear colleague, could you confirm whether Ki of `COc1c(F)cc(Oc2nc(-c3cncnc3)ncc2NC[C@@H]2CCCN2)cc1F` falls below 10 nM? Thanks.
Result: criterion not met

Ask: Dear colleague, could you confirm whether Ki of `COc1cccc(Oc2nc(-c3cncc(C#N)c3)ncc2NC[C@@H]2CCCN2)c1` falls below 10 nM? Thanks.
Result: criterion met

Ask: Dear colleague, could you confirm whether Ki of `COc1ccc(Oc2nc(-c3cncc(C#N)c3)ncc2NCCN)cc1` falls below 10 nM? Thanks.
Result: criterion met
